test system: MDA-MB-468; test: phospho-S6 immunofluorescence (DAPI-normalised), per-plate z-score; higher = higher phospho-S6 signal (less pathway suppression); details: co-treatment: lapatinib 1 uM; 24 h
Experimental readout: phospho-S6 immunofluorescence (z-score)
Give bare numbers.

Example entries begin here.
Compound: O=C(O)COc1cccc(CN(Cc2ccc(-n3cccn3)cc2)S(=O)(=O)c2cccnc2)c1 [Taprenepag] (compound 10 µM)
phospho-S6 immunofluorescence (z-score): 0.34
//
Compound: Cc1nn(C)c2c1C(c1ccc(C(F)(F)F)cc1)C(C#N)=C(N)O2 (configuration not stated) (compound 10 µM)
phospho-S6 immunofluorescence (z-score): 2.28

Would you mind listing phospho-S6 immunofluorescence (z-score) for each of the following compounds?
1. OC[C@H]1O[C@@H](n2cnc3c(N[C@@H]4CCc5ccccc54)ncnc32)[C@H](O)[C@@H]1O (compound 10 µM)
2. CC(C)(N)C(=O)N[C@H](COCc1ccccc1)C(=O)N1CCC2(CC1)CN(S(C)(=O)=O)c1ccccc12 [Ibutamoren (Mesylate)] (compound 10 µM)
3. CC(C)C[C@H](NC(=O)[C@H](CC(C)C)NC(=O)[C@H](Cc1ccccc1)NC(=O)[C@@H](N)CO)C(=O)N[C@@H](CCCN=C(N)N)C(=O)N[C@@H](CC(N)=O)C(=O)O (compound 10 µM)
4. CN(C)[C@@H]1CCc2[nH]c3ccc(NC(=O)c4ccc(F)cc4)cc3c2C1 (compound 10 µM)
5. C[C@H](Nc1cc(NS(=O)(=O)N2CCC2)nc(SCc2cccc(F)c2F)n1)[C@@H](O)CO (compound 10 µM)

Resp:
1: 0.89; 2: -7.75; 3: -0.25; 4: -1.38; 5: -0.3

Ref: the supplement of paper PMC7411640
